# self-cleavage listing for each entry below
B1: Hairpin Ribozyme (parent)
chain: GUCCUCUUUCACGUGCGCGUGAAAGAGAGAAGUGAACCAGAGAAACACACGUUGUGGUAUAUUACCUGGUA

Variants of: B1
assay info: self-cleavage, relative activity (ratio to wild type); higher = more cleavage; co-transcriptional
readout label: self-cleavage

>>> reported_result("U8G C16G")
0.395
>>> reported_result("G19A U55G")
0.216
>>> reported_result("C10A G40U")
0.141
>>> reported_result("A35U C48G")
0.215
>>> reported_result("G27U G69U")
0.152
>>> reported_result("G21U G32U")
0.1
>>> reported_result("C3U G40C")
0.0768
>>> reported_result("G1U A26G")
0.314
>>> reported_result("C4U A64C")
0.181
>>> reported_result("G19C U67A")
0.323
>>> reported_result("G25U A45G")
0.118
>>> reported_result("C50G G51C")
0.327
>>> reported_result("U5C C10A")
0.427
>>> reported_result("G1C A61G")
0.202
>>> reported_result("C18U G57U")
0.234
>>> reported_result("U52G A71C")
1.32
>>> reported_result("U20C A22G")
0.877
>>> reported_result("G34U G56U")
0.225
>>> reported_result("U8A A45C")
0.158
>>> reported_result("G29C C37A")
0.14
>>> reported_result("U14A C38G")
0.0908
>>> reported_result("U14A G17C")
0.472
>>> reported_result("A26U G40A")
0.175
>>> reported_result("C38U C66A")
0.167
>>> reported_result("A28U C38A")
0.159
>>> reported_result("G68U A71G")
0.253
>>> reported_result("G25U A26U")
0.542
>>> reported_result("C16G U63A")
0.15
>>> reported_result("U2C U52C")
0.0386
>>> reported_result("G29A A36U")
0.278
>>> reported_result("U8A U60G")
0.439
>>> reported_result("A11C U62A")
0.208
>>> reported_result("G32U A49C")
0.0697
>>> reported_result("A44U A64G")
0.202
>>> reported_result("A26C U60C")
0.602
>>> reported_result("A41C U63A")
0.108
>>> reported_result("C50G U70C")
0.498
>>> reported_result("U5C A31U")
0.0715
>>> reported_result("A49C U67C")
0.0984
>>> reported_result("U60C G68A")
0.26
>>> reported_result("U2G U53G")
0.267
>>> reported_result("A24U A39G")
0.34
>>> reported_result("U5G G15U")
0.431
>>> reported_result("C48U U53A")
0.0973
>>> reported_result("G21A G27U")
0.227
>>> reported_result("U8A U14C")
0.845
